Recorded LD50 for the following compounds
# PROCEDURE TEXT: Acute toxicity in sc dosed mouse
# Format: organism-based
# CONDITION NOTES: in vivo
READOUT KIND: LD50 (mg/kg)

• CN1CC2(c3cccc(O)c3)CCCC1C2 (racemic) = 133
• Br.C[C@@H]1N(C)[C@@H]2CCC[C@@]1(c1cccc(O)c1)C2 = 82.7
• CN1C[C@@]2(c3cccc(O)c3)CCC[C@@H]1C2 = 156
• Br.COc1cccc(C23CCCC(C2)N(C)C3C)c1 (racemic) = 25.9
• Br.CCCCCC(=O)Oc1cccc(C23CCCC(C2)N(C)C3C)c1 (racemic) = 156
• CN1C[C@]2(c3cccc(O)c3)CCC[C@H]1C2 = 90.7
• Cl.O=C(CCN1CC2(c3cccc(O)c3)CCCC1C2)c1ccccc1 (racemic) = 184
• Br.CCC1N(C)C2CCCC1(c1cccc(OC(C)=O)c1)C2 (racemic) = 55.1
• CC1N(CCc2ccccc2)C2CCCC1(c1cccc(O)c1)C2.Cl (racemic) = 27.6
• Br.CC1N(C)C2CCCC1(c1cccc(O)c1)C2 (racemic; 8) = 113
• CCOC(=O)C1(c2ccccc2)CCN(C)CC1.Cl [MEPERIDINE HYDROCHLORIDE] = 273
• Br.C[C@H]1N(C)[C@H]2CCC[C@]1(c1cccc(O)c1)C2 = 123
• Br.CC1N(C)C2CCCC1(c1cccc(OC(=O)c3ccccc3)c1)C2 (racemic) = 156
• Br.COc1cccc(C23CCCC(C2)N(C)C3)c1 (racemic) = 31.2
• Br.CCC(=O)Oc1cccc(C23CCCC(C2)N(C)C3C)c1 (racemic) = 114
• CC1N(CC2CC2)C2CCCC1(c1cccc(O)c1)C2.Cl (racemic) = 59.8
• CCCCCN1C2CCCC(c3cccc(O)c3)(C2)C1C.Cl (racemic) = 36.7
• COc1ccc2c3c1O[C@H]1[C@@H](O)C=C[C@H]4[C@@H](C2)N(C)CC[C@@]341.COc1ccc2c3c1O[C@H]1[C@@H](O)C=C[C@H]4[C@@H](C2)N(C)CC[C@@]341.O.O=P(O)(O)O.O=P(O)(O)O [CODEINE PHOSPHATE] = 231

###

# System: Mus musculus
# PROCEDURE TEXT: Analgesic activity in sc dosed mouse assessed as time duration of activity by hot-plate method
# Assay type: functional
READOUT KIND: Time (min)

- CN1C[C@]2(c3cccc(O)c3)CCC[C@H]1C2: 140
- CN1CC2(c3cccc(O)c3)CCCC1C2 (racemic): 137
- Br.C[C@H]1N(C)[C@H]2CCC[C@]1(c1cccc(O)c1)C2: 148.6
- Br.CC1N(C)C2CCCC1(c1cccc(O)c1)C2 (racemic; 8): 127

###

# Tested on: Mus musculus
# PROCEDURE TEXT: Analgesic activity in mouse assessed as inhibition of AcOH-induced writhing up to 10 mg/kg, sc
# Type: functional, organism-based
# Set-up: dose 10 mg/kg
Calls of active or inactive are those of the source. The rule behind the calls is not given here.
READOUT KIND: Activity

* CC1C2CCCC1(c1cccc(O)c1)CN2C (racemic; 15) | inactive
* CC1C2CCCC1(c1cccc(O)c1)C(C)N2C (racemic; 14) | inactive
* Cl.Oc1cccc(C23CCCC(C2)N(CC2CCC2)C3)c1 (racemic) | inactive
* CCCCN1C2CCCC(c3cccc(O)c3)(C2)C1C.Cl (racemic) | inactive
* CC1C2CCCC1(c1cccc(O)c1)CN2C (racemic; 13) | inactive
* Br.CC1N(C)C2CCCC1(c1ccc(O)c(O)c1)C2 (racemic) | inactive
* CC1C2CCCC1(c1cccc(O)c1)C(C)N2C (racemic; 16) | inactive
